Property: log10 of Anti-bacterial activity (MIC); scope: individual compounds
tested on: Enterococcus faecium (EFM); test: MIC, two-fold agar dilution (CLSI), clinical isolates; type: cell-based; conditions: strain EFM 15-4
Please interpret these as log10 of Anti-bacterial activity (MIC) where Anti-bacterial activity (MIC) is in µg/mL.

Reference set, count: 10
>  <COMPOUND>
O=C(C[C@@H](CC1CCCC1)C(=O)N1CC2(CC2)C[C@H]1C(=O)Nc1ccno1)NO

>  <EXPERIMENTAL_TARGET>
Enterococcus faecium (EFM)

>  <log10 of Anti-bacterial activity (MIC)>
0.00

$$$$
>  <COMPOUND>
CCCC[C@H](CC(=O)NO)C(=O)N1CC2(CCCC2)C[C@H]1C(=O)Nc1cnccn1

>  <EXPERIMENTAL_TARGET>
Enterococcus faecium (EFM)

>  <log10 of Anti-bacterial activity (MIC)>
0.30

$$$$
>  <COMPOUND>
O=C(C[C@@H](CC1CCCC1)C(=O)N1CC2(CC2)C[C@H]1c1nc2ccccc2[nH]1)NO

>  <EXPERIMENTAL_TARGET>
Enterococcus faecium (EFM)

>  <log10 of Anti-bacterial activity (MIC)>
0.30

$$$$
>  <COMPOUND>
O=C(C[C@@H](CC1CCCC1)C(=O)N1CC2(CC2)C[C@H]1C(=O)Nc1ncccc1F)NO

>  <EXPERIMENTAL_TARGET>
Enterococcus faecium (EFM)

>  <log10 of Anti-bacterial activity (MIC)>
0.30

$$$$
>  <COMPOUND>
Cc1cc(NC(=O)[C@@H]2CC3(CC3)CN2C(=O)[C@@H](CC(=O)NO)CC2CCCC2)no1

>  <EXPERIMENTAL_TARGET>
Enterococcus faecium (EFM)

>  <log10 of Anti-bacterial activity (MIC)>
0.30

$$$$
>  <COMPOUND>
O=C(C[C@@H](CC1CCCC1)C(=O)N1CC2(CC2)C[C@@H]1c1nc2ccccc2[nH]1)NO

>  <EXPERIMENTAL_TARGET>
Enterococcus faecium (EFM)

>  <log10 of Anti-bacterial activity (MIC)>
1.20

$$$$
>  <COMPOUND>
CCCC[C@H](CN(O)C=O)C(=O)N1CCC[C@H]1C(=O)Nc1ccc(F)c[n+]1[O-] [LBM415, reference compound]

>  <EXPERIMENTAL_TARGET>
Enterococcus faecium (EFM)

>  <log10 of Anti-bacterial activity (MIC)>
0.90

$$$$
>  <COMPOUND>
CCCC[C@H](CC(=O)NO)C(=O)N1CC2(CCCC2)C[C@H]1C(=O)Nc1cc(C)on1

>  <EXPERIMENTAL_TARGET>
Enterococcus faecium (EFM)

>  <log10 of Anti-bacterial activity (MIC)>
0.60

$$$$
>  <COMPOUND>
O=C(C[C@@H](CC1CCCC1)C(=O)N1CC2(CC2)C[C@H]1C(=O)NC1CC1)NO

>  <EXPERIMENTAL_TARGET>
Enterococcus faecium (EFM)

>  <log10 of Anti-bacterial activity (MIC)>
1.51

$$$$
>  <COMPOUND>
O=C(C[C@@H](CC1CCCC1)C(=O)N1CC2(CC2)C[C@H]1C(=O)Nc1nc(C(F)(F)F)cs1)NO

>  <EXPERIMENTAL_TARGET>
Enterococcus faecium (EFM)

>  <log10 of Anti-bacterial activity (MIC)>
0.00

$$$$

### Prompt Request - read-out log10 of Anti-bacterial activity (MIC) | tested on Enterococcus faecium (EFM) | compound O=C(C[C@@H](CC1CCCC1)C(=O)N1CC2(CC2)C[C@H]1C(=O)Nc1cccnn1)NO
### Response 0.00

### Prompt Request - read-out log10 of Anti-bacterial activity (MIC) | tested on Enterococcus faecium (EFM) | compound CCCC[C@H](CC(=O)NO)C(=O)N1CC2(CCCC2)C[C@H]1C(=O)Nc1ccc(F)cn1
### Response 0.30

### Prompt Request - read-out log10 of Anti-bacterial activity (MIC) | tested on Enterococcus faecium (EFM) | compound O=C(C[C@@H](CC1CCCC1)C(=O)N1CC2(CC2)C[C@H]1C(=O)Nc1nncs1)NO
### Response 1.51

### Prompt Request - read-out log10 of Anti-bacterial activity (MIC) | tested on Enterococcus faecium (EFM) | compound O=C(C[C@@H](CC1CCCC1)C(=O)N1CC2(CC2)C[C@H]1C(=O)Nc1nccs1)NO
### Response -0.30

### Prompt Request - read-out log10 of Anti-bacterial activity (MIC) | tested on Enterococcus faecium (EFM) | compound CCCC[C@H](CC(=O)NO)C(=O)N1CC2(CCCC2)C[C@H]1C(=O)Nc1ncc(C)s1
### Response 0.00
